The measurements presented in this section are drawn from ChEMBL document CHEMBL1133047.

Reported pIC50 values for the following compounds.
target: Neurotensin receptor type 1 (Homo sapiens, UniProt P30989); experiment: Compound was evaluated for the binding affinity against human neurotensin receptor (hNTR)-1 expressed in CHO cells
Sequence (P30989 whole entry): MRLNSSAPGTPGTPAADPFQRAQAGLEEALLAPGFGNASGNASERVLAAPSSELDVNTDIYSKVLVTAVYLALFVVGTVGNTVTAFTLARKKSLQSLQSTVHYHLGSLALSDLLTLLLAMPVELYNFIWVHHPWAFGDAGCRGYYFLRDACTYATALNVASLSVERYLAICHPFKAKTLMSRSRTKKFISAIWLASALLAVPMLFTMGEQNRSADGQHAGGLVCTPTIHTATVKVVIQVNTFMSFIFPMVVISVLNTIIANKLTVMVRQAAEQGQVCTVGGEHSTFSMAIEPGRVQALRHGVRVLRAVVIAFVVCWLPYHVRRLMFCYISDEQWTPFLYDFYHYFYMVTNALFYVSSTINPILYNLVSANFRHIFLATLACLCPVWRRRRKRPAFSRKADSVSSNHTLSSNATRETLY
Where a SMILES comes first, the peptide text is derived from it. The star is where a group is joined. X1 = [N-]=[N+]=N[C@@H](CCCNCCN1CCNCC1)C(=O)*; X5 = [N-]=[N+]=N[C@@H](CCCNCCNCCN)C(=O)*; X2 = [N-]=[N+]=N[C@@H](CCCNCCCCN)C(=O)*; X4 = [N-]=[N+]=N[C@@H](CCCNCCCN)C(=O)*; X3 = [N-]=[N+]=N[C@@H](CCCNCCN)C(=O)*
# pIC50 = -log10(concentration in molar units)

compound="CC[C@H](C)[C@H](NC(=O)[C@H](Cc1ccc(O)cc1)NC(=O)[C@@H]1CCCN1C(=O)[C@H](CCCNCCN1CCNCC1)N=[N+]=[N-])C(=O)N[C@@H](CC(C)C)C(=O)O (X1-PYIL-OH)" experimental_target="Neurotensin receptor type 1 (Homo sapiens, UniProt P30989)" readout_value=7.55
compound="CC[C@H](C)[C@H](NC(=O)[C@H](Cc1ccc(O)cc1)NC(=O)[C@@H]1CCCN1C(=O)[C@H](CCCNCCCCN)N=[N+]=[N-])C(=O)N[C@@H](CC(C)C)C(=O)O (X2-PYIL-OH)" experimental_target="Neurotensin receptor type 1 (Homo sapiens, UniProt P30989)" readout_value=8.03
compound=CC[C@H](C)[C@H](NC(=O)[C@H](Cc1ccc(O)cc1)NC(=O)[C@@H]1CCCN1C(=O)[C@H](CCCN)NC(=O)[C@@H](N)CCCN)C(=O)N[C@@H](CC(C)C)C(=O)O experimental_target="Neurotensin receptor type 1 (Homo sapiens, UniProt P30989)" readout_value=8.89
compound="CC[C@H](C)[C@H](NC(=O)[C@H](Cc1ccc(O)cc1)NC(=O)[C@@H]1CCCN1C(=O)[C@H](CCCNCCN)N=[N+]=[N-])C(=O)N[C@@H](CC(C)C)C(=O)O (X3-PYIL-OH)" experimental_target="Neurotensin receptor type 1 (Homo sapiens, UniProt P30989)" readout_value=7.83
compound="CC[C@H](C)[C@H](NC(=O)[C@H](Cc1ccc(O)cc1)NC(=O)[C@@H]1CCCN1C(=O)[C@H](CCCNCCNCCN)N=[N+]=[N-])C(=O)N[C@@H](CC(C)C)C(=O)O (X5-PYIL-OH)" experimental_target="Neurotensin receptor type 1 (Homo sapiens, UniProt P30989)" readout_value=8.06

Look up pIC50 for this compound: CC[C@H](C)[C@H](NC(=O)[C@H](Cc1ccc(O)cc1)NC(=O)[C@@H]1CCCN1C(=O)[C@@H](N)CCCNC(=N)N)C(=O)N[C@@H](CC(C)C)C(=O)O 7.72

Also need CC[C@H](C)[C@H](NC(=O)[C@H](Cc1ccc(O)cc1)NC(=O)[C@@H]1CCCN1C(=O)[C@H](CCCNCCCN)N=[N+]=[N-])C(=O)N[C@@H](CC(C)C)C(=O)O (X4-PYIL-OH) , thanks. 8.41
